B1: INTS3 (parent)
chain: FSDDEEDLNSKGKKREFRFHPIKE

Variants of: B1
Test: protein stability index of a GFP-peptide fusion (GPS, HEK-293T) (PSI 1-6); higher = more stable;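 note: lentivirally expressed fusions sorted by FACS into six bins by GFP to DsRed ratio, PSI derived from sequencing read proportions per bin multiplied by bin number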
Conditions: c terminus: a fixed tail appended
Below, each entry is listed alongside its reported protein stability index.
The answer should be written as a number, with no unit following it.

Answered cases to consult:
Q) Dear colleague, I am looking for the recorded protein stability index of the following variant: S10Q
A) 3.43

Q) GET /values?readout=protein stability index&item= K23T
A) 3.52

Q) Item P21F has what recorded protein stability index?
A) 3.58

Q) What does the data say about its protein stability index? Entry: K11W
A) 1.9

Q) Reported protein stability index, variant I22H : ____
A) 2.91

Q) Return reported protein stability index; argument: D3R
A) 2.19

---
Q) Query: protein stability index; subject: K13R
A) 2.99

Q) Recorded protein stability index for G12K , please?
A) 1.98

Q) Bench note: what protein stability index did K13V show?
A) 2.11
